The following compounds are listed with their measured melting point values.
parameter.measured: melting point

* CCCn1c(-c2ccc(C#C[Si](C(C)C)(C(C)C)C(C)C)cc2)nc2cc(C#N)c(C#N)cc21 | 242 to 243 °C
* Cc1c(C(=O)Nc2ccc(N3CCN(c4ccc(Cl)cc4)CC3)c(C#N)c2)cnn1-c1ccc(Cl)cc1 | 265 °C
* CCCc1c(OCCCOc2ccc(C(=O)CO)c(OC)c2CCC)ccc2c1OC(C(=O)OC)CC2 (stereo not drawn) | 87 to 88 °C
* Nc1ccc2c(ccn2C(=O)c2ccc(F)cc2)c1 | 205 to 207 °C
* CC(O)c1c(Cl)nc2n(c1=O)CCS2 (stereo not drawn) | 171 to 172 °C
* COc1ccc(Nc2nc(N3CCOCC3)nc(-n3c(C(F)F)nc4c(OC)cccc43)n2)nn1 | 256 to 259 °C
* CCC(COC)NC(=O)C(Cc1ccc(OCc2ccccc2)cc1)NC(=O)C(CC(C)C)N(C)Cc1ccc(N(C)C)cc1 (stereo not drawn) | 109 to 112 °C
* CCCCCCCCc1ccc(C#Cc2c3ccccc3c(C#Cc3ccc(CCCCCCCC)cc3)c3ccccc23)cc1 | 131 to 133 °C
* CCOc1nn(C(=O)NS(=O)(=O)c2c(C(=O)N(C)C)csc2C)c(=O)n1C | 162 °C
* O=C(NCc1ccc([N+](=O)[O-])cc1)C(F)(F)F | 97 to 98 °C
* O=C(c1c[nH]c2nc(Cl)ccc12)N1CCN2CCC1CC2 | 228 to 229 °C
* CCN(CC)c1cc(C)nc(Oc2c(C)cc(Cl)cc2C)c1C | 184 to 185 °C
* Cc1nc(-c2cnccn2)no1 | 100 to 104 °C
* Cc1c([N+](=O)[O-])cnn1-c1c(Cl)cc(C(F)(F)F)cc1Cl | 91 to 92 °C
* Cn1ncc(-c2ccc3c(c2)c(C2=CCN(CCN4CCNC4=O)CC2)cn3-c2ccc(F)cc2)n1 | 175 to 177 °C
* CCCCOc1c(CN2C(=O)c3ccccc3C2=O)n(CCNC(=O)OC)c(=O)c2cc(Cl)c(Cl)cc12 | 241 to 243 °C
* CC(C)C(=O)NC1CCc2c(c3cc(C#N)ccc3n2Cc2ccccc2C(F)(F)F)C1 (stereo not drawn) | 222 to 225 °C
* Clc1ccc2c(c1)C(c1ccco1)=NCC1CSCCN21 (stereo not drawn) | 138 to 140 °C
* COc1ccc(C=C=C(C)C(=O)O)cc1 | 105 to 108 °C
* Cc1cc(C)cc(SN2C(=O)CCC2=O)c1 | 131 to 134 °C
* COc1ccc(-c2[nH]nc3c2C(=O)c2c(NC(=O)NNC(=O)c4cc(N)cc(N)c4)cccc2-3)cc1 | > 300 °C
* O=C(Cc1ccccc1)Nc1ccc2c(c1)C(=O)c1cc(NC(=O)Cc3ccccc3)ccc1C2=O | 224 °C
* CNC(=O)c1nc(SC)n2c1CN=C(c1ccccc1Cl)c1cc(Cl)ccc1-2 | 224 to 227 °C
* O=C1c2ccccc2N(N2CCOCC2)C2=NCCN12 | 250 to 251 °C
* Cc1c(-c2ccc(OCc3ccccc3)cc2)n(Cc2ccc(OCCN3C[C@@H]4CC[C@H]3C4)cc2)c2ccc(OCc3ccccc3)cc12 | 95 to 100 °C
* O=C(O)c1ccc2oc3ccccc3c2c1 | 172 to 173 °C
* Clc1cc(-c2cnc3c(c2)N(Cc2c(Cl)cccc2Cl)CCN3)ccn1 | 194 °C
* COc1ccc(-c2c3c(cc4ccc(OCc5ccccc5)cc24)C(=O)NC3)cc1 | 213 to 216 °C
* CN(Cc1cc(C(F)(F)F)cc(C(F)(F)F)c1)C(=O)c1nc(Cl)c2ccccc2c1-c1ccc(F)cc1 | 142 to 143 °C
* Cc1nc(Cl)c(C#N)cc1-c1ccccc1 | 134 to 135 °C
* CCCC(=NOCC)C1=C(O)CC(C2(C)CC(C(C)C)=NO2)CC1=O (stereo not drawn) | 85 °C
* CC(=O)C1CCCS1(=O)=O (stereo not drawn) | 119 to 120 °C
* CC(=O)N(C)C12CCCCC1Oc1ccccc12 (stereo not drawn) | 138 to 139 °C
* COC(=O)C(Cc1cccs1)NC(=O)[C@H](Cc1cccc2ccccc12)NC(=O)OCc1ccccc1 (mixture of isomers) | 140 to 141 °C
* O=[N+]([O-])c1cccc2cc(-c3ccccc3)cnc12 | 112 to 114 °C
* O=c1cc(-c2cc(F)c(O)c(F)c2)oc2ccccc12 | 275 to 276 °C
* CC12CCC(O)CC1=CCC1C2C(O)CC2(C)C1CCC21OCCO1 (stereo not drawn) | 123 to 125 °C
* COc1c2occc2c(OC)c2c(=O)cc(N3CCC(C4CCN(c5cc(=O)c6c(OC)c7ccoc7c(OC)c6o5)CC4)CC3)oc12 | 126 to 129 °C
